src = BindingDB's records for doi:10.1016/j.bmc.2010.05.001

Target: UniProt P08151
Sequence (P08151 whole entry): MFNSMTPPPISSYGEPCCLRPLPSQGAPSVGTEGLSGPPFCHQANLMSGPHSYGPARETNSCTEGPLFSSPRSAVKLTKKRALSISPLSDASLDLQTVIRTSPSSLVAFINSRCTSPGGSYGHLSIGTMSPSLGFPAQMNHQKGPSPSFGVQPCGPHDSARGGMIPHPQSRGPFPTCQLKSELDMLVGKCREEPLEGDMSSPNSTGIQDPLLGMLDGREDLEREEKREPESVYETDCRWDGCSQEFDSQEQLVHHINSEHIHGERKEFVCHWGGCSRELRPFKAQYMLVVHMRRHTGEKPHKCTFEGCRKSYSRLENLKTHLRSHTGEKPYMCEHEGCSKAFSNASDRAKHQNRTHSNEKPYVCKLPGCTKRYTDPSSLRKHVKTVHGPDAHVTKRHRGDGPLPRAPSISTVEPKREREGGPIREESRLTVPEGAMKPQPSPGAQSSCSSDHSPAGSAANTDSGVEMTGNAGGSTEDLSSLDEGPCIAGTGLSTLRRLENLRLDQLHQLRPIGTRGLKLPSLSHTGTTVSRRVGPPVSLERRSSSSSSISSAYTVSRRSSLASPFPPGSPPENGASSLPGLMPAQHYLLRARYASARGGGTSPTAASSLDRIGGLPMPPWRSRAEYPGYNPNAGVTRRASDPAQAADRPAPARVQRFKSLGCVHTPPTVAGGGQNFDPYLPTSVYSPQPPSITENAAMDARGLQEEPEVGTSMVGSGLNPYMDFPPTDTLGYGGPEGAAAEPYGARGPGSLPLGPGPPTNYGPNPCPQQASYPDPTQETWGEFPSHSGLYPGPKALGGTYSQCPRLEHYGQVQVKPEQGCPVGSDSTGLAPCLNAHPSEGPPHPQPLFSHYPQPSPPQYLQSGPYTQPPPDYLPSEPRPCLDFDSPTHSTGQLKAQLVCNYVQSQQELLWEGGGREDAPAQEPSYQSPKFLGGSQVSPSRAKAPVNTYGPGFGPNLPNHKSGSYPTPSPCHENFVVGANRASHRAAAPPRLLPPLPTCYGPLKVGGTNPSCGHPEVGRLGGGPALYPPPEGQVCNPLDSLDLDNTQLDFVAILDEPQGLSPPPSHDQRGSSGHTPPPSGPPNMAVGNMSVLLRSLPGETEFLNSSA
Experiment: Inhibition of human Gli1 expressed in mouse C3H10T1/2 cells assessed as inhibition of transcriptional activity after 24 hrs by luciferase reporter gene assay
RECORDED ENDPOINT: pIC50
Friendly reminder that pIC50 comes from taking -log10 of the concentration in mol/L.

[in] Any idea what its pIC50 is? The molecule is CCCN(C(=O)C(C)c1cccc(C(=O)c2ccccc2)c1)c1ccc2[nH]ccc2c1 (stereo unspecified)
[out] 5.80
